- measurement-description: Genotoxicity in Salmonella typhimurium TA1535 harboring pSK1002 assessed as umu gene induction at 0.008 mg/ml in presence of Sprague-Dawley rat liver S9 fraction after by SOS/umu assay relative to control
- Type: toxicity, organism-based
- condition-notes: salmonella enterica subsp. enterica serovar typhimurium, read-out: FC
The entries below come with measured fold induction at 0.008 mg/ml values attached.
Give the figure only, with no unit attached.

>>> data_value("OC(CCN1CC=C(c2ccc(F)cc2)CC1)c1ccc2c(c1)OCO2 (stereo not given)")
1

Task item: Provide measured fold induction at 0.008 mg/ml value, entry: N#Cc1ccc(N2CCC(NCCC(O)c3ccc(F)c4ccccc34)CC2)c(Br)c1 (stereo not given)
Reply: 1

Task item: Please supply the value of reported fold induction at 0.008 mg/ml for the item COc1ccccc1N1CCN(CCC(O)c2ccc(F)cc2)CC1 (stereo in doubt; 66)
Reply: 1

Task item: Give the reported value of fold induction at 0.008 mg/ml for this record: COc1ccccc1N1CCN(CCC(O)c2ccc(F)c3ccccc23)CC1 (stereo not given)
Reply: 1

Task item: Identify the reported fold induction at 0.008 mg/ml for the following entry. Nc1ccc(N2CCC(NCCC(O)c3ccc(F)c4ccccc34)CC2)c(C(F)(F)F)c1 (stereo not given)
Reply: 1.1
